This collection of values is drawn from paper PMC5164944.

# Test system: CYP2D6 mRNA
# ASSAY_SUMMARY: CYP2D6 mRNA downregulation in HepG2 cells
# RECORDED_CONDITIONS: read-out: EC50 of CYP2D6 mRNA downregulation, 72 hrs
For each entry below, report its EC50 value.
Please report the result as a number followed by the unit.

-- ask Fill in the blank: the reported EC50 of C[C@H](NC(C)(C)C)[C@@H](O)c1cccc(Cl)c1 [Threo-hydrobupropion, threohydrobupropion] is ____.
-- reply 9950 nM

-- ask Reported EC50 for `C[C@@H]1NC(C)(C)CO[C@@]1(O)c1cccc(Cl)c1` : what is it?
-- reply 200 nM

-- ask State the recorded EC50 for this entry: CC(NC(C)(C)C)C(O)c1cccc(Cl)c1 (stereo not drawn) [Erythro-hydrobupropion, erythrohydrobupropion]
-- reply 1110 nM
